Reference source for all entries: patent US20190194323A1

- assayedTarget: T1, Siglec-7-ECD (human, UniProt Q9Y286 19-353)
- T1 construct: also called p75; AIRM
- T1 sequence (Q9Y286 19-353 limits assumed): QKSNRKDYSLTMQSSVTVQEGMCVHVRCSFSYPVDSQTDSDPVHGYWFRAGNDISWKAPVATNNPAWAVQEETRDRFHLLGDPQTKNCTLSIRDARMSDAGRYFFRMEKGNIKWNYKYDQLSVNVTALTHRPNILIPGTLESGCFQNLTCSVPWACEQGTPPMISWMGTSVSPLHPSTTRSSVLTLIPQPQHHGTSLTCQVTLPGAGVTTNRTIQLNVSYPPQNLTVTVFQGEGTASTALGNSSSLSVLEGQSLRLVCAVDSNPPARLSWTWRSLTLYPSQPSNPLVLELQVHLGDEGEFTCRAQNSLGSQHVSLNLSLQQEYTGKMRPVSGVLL
- method: monovalent Fab; bio-layer interferometry (ForteBio) per Methods
Assign Kd to each entry below.

[
  {
    "binder": "humanized 16H11-derived Fab, VH AK463-2 / VL AK418-2 (Fab, V domains shown, Measured as monovalent Fab; also called No. 35; VH463-2 and VL418-2) VH: QVQLVQSGAEVKKPGSSVKVSCKASGYDFSNFWMNWVRQAPGQGLEWMGQIYPGDGEIKYNQKFQGRVTITADESTSTAYMELSSLRSEDTAVYYCARDDYLRAMDYWGQGTLVTVSS VL: DIQMTQSPSSLSASVGDRVTITCRASGNIHNYLAWYQQKPGKAPKFLLYSAKRLESGVPSRFSGSGSGTDYTLTISSLQPEDFATYYCQHFWSSPYTFGGGTKVEIK",
    "Kd": "< 0.075 nM"
  }
]

Kindly give each listed record's Kd.
1. humanized 16H11-derived Fab, VH AK484-6 / VL AK418-2 (Fab, V domains shown, Measured as monovalent Fab; also called No. 42; VH484-6 and VL418-2) VH: QVQLVQSGAEVKKPGSSVKVSCKASGYDFSNYWMNWVRQAPGQGLEWMGQIYPGDGEIKYNQKFQGRVTITADESTSTAYMELSSLRSEDTAVYYCARDDYLRAMDIWGQGTMVTVSS VL: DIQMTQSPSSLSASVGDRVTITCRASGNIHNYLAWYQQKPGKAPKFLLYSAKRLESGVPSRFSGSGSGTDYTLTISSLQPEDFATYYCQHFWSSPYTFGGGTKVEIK
2. humanized 16H11-derived Fab, VH AK440-2 / VL AK418-2 (Fab, V domains shown, Measured as monovalent Fab; also called No. 18; VH440-2 and VL418-2) VH: QVQLVQSGAEVKKPGSSVKVSCKGSGYDFSNFWMNWVRQAPGQGLEWMGQIYPGDGEIKYNQKFQGRVTITADESTSTAYMELSSLRSEDTAVYFCARDDYLRAMDYWGQGTLVTVSS VL: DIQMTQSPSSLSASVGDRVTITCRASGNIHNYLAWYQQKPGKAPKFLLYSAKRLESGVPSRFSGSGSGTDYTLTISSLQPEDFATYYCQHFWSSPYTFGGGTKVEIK
3. humanized 16H11-derived Fab, VH AK387-11 / VL AK418-2 (Fab, V domains shown, Measured as monovalent Fab; also called No. 32; VH387-11 and VL418-2) VH: QVQLVQSGAEVKKPGSSVKVSCKGSGYDFSNFWMNWVRQAPGQGLEWMGQIYPGDGEIKYNQKFQGRVTLTADESTSTAYMELSSLRSEDTAVYFCARDDYLRAMDYWGQGTLVTVSS VL: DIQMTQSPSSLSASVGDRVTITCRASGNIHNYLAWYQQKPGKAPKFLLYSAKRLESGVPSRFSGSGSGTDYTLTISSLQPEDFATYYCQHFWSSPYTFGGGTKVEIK

A.
["< 0.1 nM", "< 0.1 nM", "< 0.075 nM"]

Required: Kd, one value per binder below.
1. humanized 16H11-derived Fab, VH AK463-2 / VL AK448-3 (Fab, V domains shown, Measured as monovalent Fab; also called No. 36; Vh463-2 and VL448-3) VH: QVQLVQSGAEVKKPGSSVKVSCKASGYDFSNFWMNWVRQAPGQGLEWMGQIYPGDGEIKYNQKFQGRVTITADESTSTAYMELSSLRSEDTAVYYCARDDYLRAMDYWGQGTLVTVSS VL: DIQMTQSPSSLSASVGDRVTITCRASQNIHNYLAWYQQKPGKAPKFLLYSAKRLESGVPSRFSGSGSGTDYTLTISSLQPEDFATYYCQHFWSSPYTFGQGTKLEIK
2. humanized 16H11-derived Fab, VH AK485-5 / VL AK418-2 (Fab, V domains shown, Measured as monovalent Fab; also called No. 45) VH: QVQLVQSGAEVKKPGSSVKVSCKASGYDFSNFAMNWVRQAPGQGLEWMGQIYPGDGEIKYNQKFQGRVTITADESTSTAYMELSSLRSEDTAVYYCARDDYLRAMDIWGQGTMVTVSS VL: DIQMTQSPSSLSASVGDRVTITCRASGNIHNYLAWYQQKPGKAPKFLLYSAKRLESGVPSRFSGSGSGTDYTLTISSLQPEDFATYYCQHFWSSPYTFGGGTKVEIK
3. humanized 16H11-derived Fab, VH AK417-17 / VL AK419-2 (Fab, V domains shown, Measured as monovalent Fab; also called No. 6; No. 13) VH: QVQLVQSGAEVKKPGSSVKVSCKASGYDFSNFWMNWVRQAPGQGLEWMGGIYPGDGEINYAQKFQGRVTITADESTSTAYMELSSLRSEDTAVYYCARDDYLRAMDIWGQGTMVTVSS VL: DIQMTQSPSSLSASVGDRVTITCRASQNIHNYLAWYQQKPGKAPKFLLYSAKRLESGVPSRFSGSGSGTDYTLTISSLQPEDFATYYCQHFWSSPYTFGGGTKVEIK
4. humanized 16H11-derived Fab, VH AK446-7 / VL AK448-3 (Fab, V domains shown, Measured as monovalent Fab; also called No. 34; AK446-7/AK448-3) VH: QVQLVQSGAEVKKPGSSVKVSCKASGYDFSNFWMNWVRQAPGQGLEWMGQIYPGDGEIKYNQKFQGRVTITADESTSTAYMELSSLRSEDTAVYYCARDDYLRAMDIWGQGTMVTVSS VL: DIQMTQSPSSLSASVGDRVTITCRASQNIHNYLAWYQQKPGKAPKFLLYSAKRLESGVPSRFSGSGSGTDYTLTISSLQPEDFATYYCQHFWSSPYTFGQGTKLEIK
5. humanized 16H11-derived Fab, VH AK417-17 / VL AK427-1 (Fab, V domains shown, Measured as monovalent Fab; also called No. 10) VH: QVQLVQSGAEVKKPGSSVKVSCKASGYDFSNFWMNWVRQAPGQGLEWMGGIYPGDGEINYAQKFQGRVTITADESTSTAYMELSSLRSEDTAVYYCARDDYLRAMDIWGQGTMVTVSS VL: DIQMTQSPSSLSASVGDRVTITCRASQNIHNYLAWYQQKPGKAPKLLLYSAKRLEDGVPSRFSGSGSGTDYTLTISSLQPEDFATYYCQHFWSSPYTFGGGTKVEIK

A.
1: < 0.075 nM; 2: > 0.5 nM; 3: > 0.5 nM; 4: < 0.075 nM; 5: > 0.5 nM

Q. Name the reported Kd value associated with the binder humanized 16H11-derived Fab, VH AK417-17 / VL AK425-3 (Fab, V domains shown, Measured as monovalent Fab; also called No. 8) VH: QVQLVQSGAEVKKPGSSVKVSCKASGYDFSNFWMNWVRQAPGQGLEWMGGIYPGDGEINYAQKFQGRVTITADESTSTAYMELSSLRSEDTAVYYCARDDYLRAMDIWGQGTMVTVSS VL: DIQMTQSPSSLSASVGDRVTITCRASGNIHNYLAWYQQKPGKAPKLLLYSAKRLEDGVPSRFSGSGSGTDYTLTISSLQPEDFATYYCQHFWSSPYTFGGGTKVEIK
A. > 0.5 nM
